Target: T1, Human IL2Rγ extracellular domain expressed with a C-terminal mouse IgG2a Fc tag (human)
T1 construct: whole entry is the Fc-fused construct; also called hIL-2Rg-mFc
T1 chain: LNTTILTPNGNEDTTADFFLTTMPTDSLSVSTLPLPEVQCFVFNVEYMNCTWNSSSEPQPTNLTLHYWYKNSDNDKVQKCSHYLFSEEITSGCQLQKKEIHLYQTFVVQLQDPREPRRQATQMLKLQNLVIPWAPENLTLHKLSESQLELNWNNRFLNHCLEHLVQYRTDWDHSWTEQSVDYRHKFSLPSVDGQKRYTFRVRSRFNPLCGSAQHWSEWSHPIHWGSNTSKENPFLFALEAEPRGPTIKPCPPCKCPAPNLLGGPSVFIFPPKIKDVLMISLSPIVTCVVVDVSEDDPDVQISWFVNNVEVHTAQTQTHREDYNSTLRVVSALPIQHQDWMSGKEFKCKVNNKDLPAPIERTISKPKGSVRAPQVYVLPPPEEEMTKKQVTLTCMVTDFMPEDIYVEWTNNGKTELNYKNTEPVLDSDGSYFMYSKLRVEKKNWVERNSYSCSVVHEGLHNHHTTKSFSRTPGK
Test: SPR Biacore 4000, anti-hFc-captured mAb, 37 C
Readout Kind: 50 nM Ag Bound (RU)
The reply should be a number in RU, with the unit left off.

* H4H13538P (antibody, human IgG4 S228P, kappa, V domains shown, fully human anti-IL2Rgamma mAb, human IgG4 Fc) VH: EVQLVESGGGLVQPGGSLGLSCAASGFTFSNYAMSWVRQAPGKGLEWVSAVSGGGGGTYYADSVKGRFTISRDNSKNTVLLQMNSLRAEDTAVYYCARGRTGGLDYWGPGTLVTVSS VL: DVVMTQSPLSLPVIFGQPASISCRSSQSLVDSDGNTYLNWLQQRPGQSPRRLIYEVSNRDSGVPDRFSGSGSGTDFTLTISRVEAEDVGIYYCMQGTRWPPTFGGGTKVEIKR | 70
* H4H12863P (antibody, human IgG4 S228P, kappa, V domains shown, fully human anti-IL2Rgamma mAb, human IgG4 Fc) VH: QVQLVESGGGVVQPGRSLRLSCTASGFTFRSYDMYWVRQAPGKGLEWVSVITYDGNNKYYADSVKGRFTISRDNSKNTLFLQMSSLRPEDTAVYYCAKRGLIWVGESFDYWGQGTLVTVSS VL: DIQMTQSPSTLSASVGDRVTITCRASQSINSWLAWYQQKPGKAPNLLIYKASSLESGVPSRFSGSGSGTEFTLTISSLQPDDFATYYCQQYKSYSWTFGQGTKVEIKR | 93

IN: Which measured 50 nM Ag Bound value corresponds to H4H12886P (antibody, human IgG4 S228P, kappa, V domains shown, fully human anti-IL2Rgamma mAb, human IgG4 Fc) VH: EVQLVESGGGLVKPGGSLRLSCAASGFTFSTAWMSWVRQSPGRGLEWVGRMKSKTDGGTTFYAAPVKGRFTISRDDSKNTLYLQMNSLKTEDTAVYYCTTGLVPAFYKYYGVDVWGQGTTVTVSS VL: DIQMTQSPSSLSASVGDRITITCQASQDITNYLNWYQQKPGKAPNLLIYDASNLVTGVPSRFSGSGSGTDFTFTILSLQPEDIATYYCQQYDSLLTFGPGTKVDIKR ?
OUT: 19

Origin of the recorded values: patent US20200247894A1
